# Test system: IGROV1 ovarian
# assay: NCI-60 one-dose screen, 48 h (100 = growth as untreated, 0 = no growth, -100 = all killed)
# measurementContext: 10 µM unless noted
The panel holds about 83,000 compounds, 20% with a hit somewhere; the sample as a whole holds those more often.
Range-based classes on measured growth: lower segment: < 30%; middle segment: ≥ 30% and < 60%; upper segment: ≥ 60%

Observe how each entry below is paired with its result.
molecule=CCCCn1c(=O)c(-c2cc(-c3ccc(Cl)cc3)nc(-c3ccc(Cl)cc3)c2)cc2cc(Cl)ccc21 qualitativelabel="upper segment"
molecule=COc1ccc(-c2cnc3ccccc3n2)cc1 qualitativelabel="upper segment"
molecule="Cc1cccc2c3c(sc12)C(c1ccc(Cl)cc1)C(C#N)=C(N)O3 (stereo not given)" qualitativelabel="lower segment"

Qu. Band of O=C1c2ccccc2NC(n2sc3ccccc3c2=O)N1c1ccccc1 (stereo not given) ?
Ans. upper segment

Qu. Band of `FC(F)(F)c1cc(Nc2ccc3c(OCCCN4CCOCC4)cccc3n2)ccc1Cl` ?
Ans. middle segment

Qu. Band of COc1ccc(C2CC(c3ccc(Nc4nc(Nc5ccc(F)cc5)nc(Nc5ccc(Cl)cc5)n4)cc3)=NN2C(C)=O)cc1 (stereo not given) ?
Ans. middle segment
